Target of assay: human CYP1A2, CYP1A2 (gene 1544) (UniProt P05177)
Sequence (P05177 whole entry, looked up): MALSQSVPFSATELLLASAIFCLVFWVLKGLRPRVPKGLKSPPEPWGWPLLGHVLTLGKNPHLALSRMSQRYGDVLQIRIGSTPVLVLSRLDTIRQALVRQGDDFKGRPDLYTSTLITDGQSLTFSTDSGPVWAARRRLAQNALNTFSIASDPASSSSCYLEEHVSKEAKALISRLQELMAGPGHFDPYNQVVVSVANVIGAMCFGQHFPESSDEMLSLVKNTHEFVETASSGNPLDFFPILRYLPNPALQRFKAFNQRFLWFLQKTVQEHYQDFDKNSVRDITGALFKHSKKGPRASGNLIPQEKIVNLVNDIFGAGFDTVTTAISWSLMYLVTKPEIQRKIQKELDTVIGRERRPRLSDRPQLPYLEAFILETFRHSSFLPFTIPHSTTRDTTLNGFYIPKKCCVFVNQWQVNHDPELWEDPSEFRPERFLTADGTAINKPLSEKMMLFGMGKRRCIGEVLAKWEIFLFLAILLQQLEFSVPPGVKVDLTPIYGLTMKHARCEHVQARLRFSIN
Assay: NVS_ADME_hCYP1A2: NovaScreen (NVS) CYP450-related Enzyme Activity (ADME) Assay for human CYP1A2 (AID 2283102)
Protocol: NVS_ADME_hCYP1A2 is a biochemical, single-readout assay that uses extracted gene-proteins from insect cells in a cell-free assay. Measurements were taken 0.5 hour after chemical dosing in a 96-well plate.NVS_ADME_hCYP1A2 is one of one assay component(s) measured or calculated from the NVS_ADME_hCYP1A2 assay. […] This assay endpoint, NVS_ADME_hCYP1A2, was analyzed in the positive analysis fitting direction relative to Acetonitrile as the negative control and baseline of activity. […]
Active and inactive are the calls of the source. How the source made its calls: active means hit-call score of the fitted dose curve at least 0.9, where 1 is the maximum; inconclusive means response in the unintended direction; inactive means score below 0.9.
Result category, one only: active, inactive

Smiles data	Qualitative label
CCCCCCCCCC	inactive
CC(C)C(=O)Nc1ccc([N+](=O)[O-])c(C(F)(F)F)c1	active
CCN(CC)C(=S)SSC(=S)N(CC)CC	active

q: How was c1ccc(C(O[C@@H]2CCCN(CCc3ccc4c(c3)OCO4)C2)c2ccccc2)cc1 classified in this test?
a: active

---

Assay: APR_HepG2_CellLoss_24hr: Apredica 24-hour HepG2 Assay for Cell Loss (AID 2282908)
Condition info: high-content imaging
Calls of active or inactive are those of the source. The calls were made as follows: active = hit-call score of the fitted dose curve at least 0.9, where 1 is the maximum; inactive = score below 0.9.
Output constraint: value belongs to YES = active, NO = inactive

Please review the following examples before continuing.
Smiles data	Qualitative label
CCc1cccc(CC)c1N	NO
COS(C)(=O)=O	NO
c1ccc2c(c1)-c1cccc3c1c-2cc1ccccc13	YES
O=C(O)c1cccc(C[C@@H]2COc3ccc(OCc4nc5cc(F)ccc5s4)cc3[C@@H]2O)c1	YES
O=C(NO)C1(NS(=O)(=O)c2ccc(Oc3ccc(F)cc3)cc2)CCOCC1	NO

q: Record lookup: outcome of this test for CC[C@H](C)C(=O)O[C@H]1C[C@H](O)C=C2C=C[C@H](C)[C@H](CC[C@@H](O)C[C@@H](O)CC(=O)O)[C@H]21 ?
a: NO

q: Recorded test outcome, item O=C1CN(N=Cc2ccc([N+](=O)[O-])o2)C(=O)N1
a: YES

q: Call for entry C=CCc1cc(S(=O)(=O)c2ccc(O)c(CC=C)c2)ccc1O :
a: YES

q: Per the assay record, what outcome was assigned to NC(=O)NN=Cc1ccc([N+](=O)[O-])o1 ?
a: YES

q: Lab log entry: Cn1c(=O)c2[nH]cnc2n(C)c1=O — outcome as called in the assay?
a: NO

q: Check the results log: what was the call for Cn1cc[nH]c1=S ?
a: NO

q: // outcome(item) with item = CCCCCOC(C)=O
a: NO

q: Fill in: this test's call for OC(CCl)CCl is ___
a: NO

---

Read-out: Vascular endothelial growth factor receptor 2 (Homo sapiens)
Assay: BSK_4H_VEGFRII: BioMAP Diversity Plus: 4H Assay for Vascular endothelial growth factor receptor 2 (VEGFR2) Biomarker Activity (AID 2283031)
Condition info: primary human endothelial cells (HUVEC); actives raise or lower the signal
Calls of active or inactive are those of the source. Rule for the calls: active = hit-call score of the fitted dose curve at least 0.9, where 1 is the maximum; inactive = score below 0.9.
I would appreciate it if you answered using one of these outcomes: YES for active, NO for inactive

Smiles data	Qualitative label
C=CCc1cc(S(=O)(=O)c2ccc(O)c(CC=C)c2)ccc1O	YES
Nc1ccn([C@@H]2O[C@H](CO)[C@@H](O)[C@@H]2O)c(=O)n1	NO
O=C(O)[C@H](O)[C@@H](O)C(=O)O	NO
FC(F)=C(F)C(F)(F)C(F)(F)C(F)(F)C(F)(F)C(F)(F)C(F)(F)F	NO

q: Called result for O=S(=O)(O)c1ccc(N=Nc2c(O)ccc3cc(S(=O)(=O)O)ccc23)cc1
a: NO

q: What did this assay record as the result for Cc1cccc(O)c1C ?
a: NO

---

Assay: CEETOX_H295R_OHPROG: CeeTox H295R High-throughput Steroidogenesis Assay for OH-Progesterone (OHPROG) (AID 2283435);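 on AC50: human adrenal H295R cells primed 48 h with 10 µM forskolin; 17alpha-hydroxyprogesterone secreted into medium measured by HPLC-MS/MS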
Condition info: actives raise or lower the signal
Active and inactive are the calls of the source. Rule for the calls: active = hit-call score of the fitted dose curve at least 0.9, where 1 is the maximum; inactive = score below 0.9.
Measured metric: AC50

Please review the following examples before continuing.
Compound	AC50
CCCCCCCCCCCCCCO	inactive
C[C@]12C=CC(=O)C=C1CC[C@H]1[C@@H]3C[C@@H](O)[C@](O)(C(=O)CO)[C@@]3(C)C[C@H](O)[C@@]12F	inactive
C[C@@H](Oc1ccc(CNC(=O)c2cccnc2Oc2ccc3c(c2)OCO3)c(F)c1)C(=O)O	inactive
CC(C)c1nnc2ccc(-c3ocnc3-c3cc(F)ccc3F)cn12	inactive
CCCCCCCC1CCC(=O)O1 (centres undefined)	inactive

Measured AC50 of CC[C@H](C)C(=O)O[C@H]1C[C@H](O)C=C2C=C[C@H](C)[C@H](CC[C@@H](O)C[C@@H](O)CC(=O)O)[C@H]21 : 5550 nM (active)

Data point: CCN(CC)C(=S)SSC(=S)N(CC)CC ; AC50 = inactive

Entry Nc1ccn([C@@H]2O[C@H](CO)[C@@H](O)[C@@H]2O)c(=O)n1 , AC50 reported as inactive

Lookup result for C=CCc1cc(S(=O)(=O)c2ccc(O)c(CC=C)c2)ccc1O ; measured AC50: 165 nM (active)

---

Read-out: CD69, CD69 (gene 969)
Assay: BSK_SAg_CD69: BioMAP Diversity Plus: SAg Assay for CD69 Biomarker Activity (AID 2283089)
Condition info: primary human HUVEC with PBMC; actives raise or lower the signal
Calls of active or inactive are those of the source. Rule for the calls: active = hit-call score of the fitted dose curve at least 0.9, where 1 is the maximum; inactive = score below 0.9.
Write down one outcome, taken from active, inactive

q: Field: outcome | Entry: O=C(Cl)C(F)(F)C(F)(F)C(F)(F)C(=O)Cl
a: inactive

q: Field: outcome | Entry: CCc1ccc(O)c(C(C)(C)C)c1
a: inactive

---

Assay: CCTE_Shafer_MEA_acute_burst_percentage_std: CCTE's Neural Acute Assay for Standard Deviation of Burst Percentage, Shafer Lab (AID 2284018);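 further: fitted in the negative direction so actives lower burst percentage SD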
Calls of active or inactive are those of the source. The calls were made as follows: active = hit-call score of the fitted dose curve at least 0.9, where 1 is the maximum; inactive = score below 0.9.
Give one outcome, nothing more. List: Y = active, N = inactive

Below, 6 compounds whose answers are already recorded.
Compound	Qualitative label
c1ccc(C(O[C@@H]2CCCN(CCc3ccc4c(c3)OCO4)C2)c2ccccc2)cc1	N
Cn1c(=O)c2[nH]cnc2n(C)c1=O	N
c1ccc2cc3ccccc3cc2c1	N
COc1cc2c(c(OC)c1OC)-c1ccc(OC)c(=O)cc1[C@@H](NC(C)=O)CC2	N
OCc1ccccc1	N
Cc1ncc([C@@H](CCCCCCc2ccc3c(n2)NCCC3)CC(=O)O)cn1	N

q: State the result this test recorded for CCCCC(CC)C(=O)OCCOCCOCCOC(=O)C(CC)CCCC (stereo not drawn) .
a: N

q: Please let me know the test result on file for COc1cc(C(C)C)c2c(c1)S(=O)(=O)N(COc1cc(=O)n3cccc(OCCN4CCCCC4)c3n1)C2=O .
a: Y

q: Given C=CCc1cc(S(=O)(=O)c2ccc(O)c(CC=C)c2)ccc1O , state the outcome it received in this test.
a: N

q: Fill in: this test's call for CCc1ccc(O)c(C(C)(C)C)c1 is ___
a: Y

q: Status in this test for CCCc1ccccc1 ?
a: N

q: // outcome(item) with item = COCc1nnc(-c2ccc[n+]([O-])c2)n1-c1c(Cl)c(Cl)cc2[nH]c(=O)c(=O)[nH]c12
a: N

q: Please indicate how the test categorized CCCCCCCC1CCC(=O)O1 (stereo not drawn) .
a: N

---

Read-out: growth arrest and DNA damage 45 (GADD45G), GADD45G (gene 10912)
Assay: LTEA_HepaRG_GADD45G: Life Technologies and Expression Analysis (LTEA) Assay for growth arrest and DNA damage 45 (GADD45G) using HepaRG (AID 2283499)
Condition info: mRNA level, 48 h; actives raise or lower the signal
Activity calls are given as the source filed them. Rule for the calls: active = hit-call score of the fitted dose curve at least 0.9, where 1 is the maximum; inactive = score below 0.9.
Pick one: active, inactive

Molecule	Qualitative label
CC(C)c1nnc2ccc(-c3ocnc3-c3cc(F)ccc3F)cn12	active
CNC(C)=O	inactive
CCCC(CCC)C(=O)O	inactive
CC(C)CC(C)O (stereo not drawn)	inactive
CCCCCCCCCCCCCCO	inactive
NC(=O)N(O)[C@@H]1COc2cc(OCc3ccccc3)ccc21	inactive
CCOc1ccc2[nH]cc(C(=O)NCc3ccccc3)c(=O)c2n1	inactive

API: the following record is the query input.
q: Dear all, I need the recorded test outcome for COCc1nnc(-c2ccc[n+]([O-])c2)n1-c1c(Cl)c(Cl)cc2[nH]c(=O)c(=O)[nH]c12 , thank you.
a: inactive

---

Assay: CEETOX_H295R_OHPREG: CeeTox H295R High-throughput Steroidogenesis Assay for OH-Pregnenolone (OHPREG) (AID 2283434)
Condition info: actives raise or lower the signal
Activity calls are given as the source filed them. The calls were made as follows: active = hit-call score of the fitted dose curve at least 0.9, where 1 is the maximum; inactive = score below 0.9.
Give your call using only these classes: active, inactive

Example entries begin here.
Molecule	Qualitative label
COc1cc2c(c(OC)c1OC)-c1ccc(OC)c(=O)cc1[C@@H](NC(C)=O)CC2	inactive
CCn1nc(C)c2c1C(=O)NCC(c1ccc(O)cc1)=N2	inactive
OCc1c[nH]c2ccccc12	inactive
c1ccc2c(c1)-c1cccc3c1c-2cc1ccccc13	active
CCCCCCCC1CCC(=O)O1 (stereo not drawn)	inactive
CC(C)c1nnc2ccc(-c3ocnc3-c3cc(F)ccc3F)cn12	inactive
CCCCC(CC)C(=O)OCCOCCOCCOC(=O)C(CC)CCCC (stereo not drawn)	inactive

Okay, now this molecule:
q: # outcome recorded in this test, key = Cc1ncc([C@@H](CCCCCCc2ccc3c(n2)NCCC3)CC(=O)O)cn1
a: inactive
